# IC50 listing for each entry below
# Assay Target: fibrinogen receptor of blood platelets, glycoprotein IIb/IIIa (Homo sapiens, UniProt P05106+P08514)
# Construct: Glycoprotein IIb/IIIa is obtained from Triton X-100 extracts of human blood platelets
# Sequence (P08514 32-887 limits assumed): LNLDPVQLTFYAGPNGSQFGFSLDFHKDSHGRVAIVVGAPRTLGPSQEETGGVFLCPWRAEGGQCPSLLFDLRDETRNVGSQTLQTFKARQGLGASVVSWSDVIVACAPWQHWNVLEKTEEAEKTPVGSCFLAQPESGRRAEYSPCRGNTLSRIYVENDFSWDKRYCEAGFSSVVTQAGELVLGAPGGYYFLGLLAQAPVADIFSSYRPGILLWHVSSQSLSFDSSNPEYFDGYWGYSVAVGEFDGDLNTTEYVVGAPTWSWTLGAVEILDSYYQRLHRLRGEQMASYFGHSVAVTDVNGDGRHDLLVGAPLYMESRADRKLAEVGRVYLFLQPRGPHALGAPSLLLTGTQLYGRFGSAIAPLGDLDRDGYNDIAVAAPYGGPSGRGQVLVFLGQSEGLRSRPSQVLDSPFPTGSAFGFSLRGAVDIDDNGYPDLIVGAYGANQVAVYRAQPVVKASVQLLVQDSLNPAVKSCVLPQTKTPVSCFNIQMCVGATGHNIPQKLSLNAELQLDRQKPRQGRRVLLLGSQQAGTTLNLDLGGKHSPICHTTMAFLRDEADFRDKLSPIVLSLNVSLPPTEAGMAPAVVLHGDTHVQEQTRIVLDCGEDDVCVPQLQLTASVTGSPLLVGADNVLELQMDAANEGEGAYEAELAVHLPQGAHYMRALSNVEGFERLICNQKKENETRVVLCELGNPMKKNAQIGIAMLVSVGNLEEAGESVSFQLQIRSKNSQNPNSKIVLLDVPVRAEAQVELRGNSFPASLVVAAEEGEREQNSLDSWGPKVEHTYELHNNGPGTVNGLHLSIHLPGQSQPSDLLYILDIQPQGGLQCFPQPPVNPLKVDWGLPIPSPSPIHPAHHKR
# Sequence (P08514 891-1039 limits assumed): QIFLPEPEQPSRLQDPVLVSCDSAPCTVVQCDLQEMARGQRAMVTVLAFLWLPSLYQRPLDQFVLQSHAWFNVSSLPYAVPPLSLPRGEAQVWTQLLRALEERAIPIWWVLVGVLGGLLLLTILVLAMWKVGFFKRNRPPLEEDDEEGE
# Sequence (P05106 27-788): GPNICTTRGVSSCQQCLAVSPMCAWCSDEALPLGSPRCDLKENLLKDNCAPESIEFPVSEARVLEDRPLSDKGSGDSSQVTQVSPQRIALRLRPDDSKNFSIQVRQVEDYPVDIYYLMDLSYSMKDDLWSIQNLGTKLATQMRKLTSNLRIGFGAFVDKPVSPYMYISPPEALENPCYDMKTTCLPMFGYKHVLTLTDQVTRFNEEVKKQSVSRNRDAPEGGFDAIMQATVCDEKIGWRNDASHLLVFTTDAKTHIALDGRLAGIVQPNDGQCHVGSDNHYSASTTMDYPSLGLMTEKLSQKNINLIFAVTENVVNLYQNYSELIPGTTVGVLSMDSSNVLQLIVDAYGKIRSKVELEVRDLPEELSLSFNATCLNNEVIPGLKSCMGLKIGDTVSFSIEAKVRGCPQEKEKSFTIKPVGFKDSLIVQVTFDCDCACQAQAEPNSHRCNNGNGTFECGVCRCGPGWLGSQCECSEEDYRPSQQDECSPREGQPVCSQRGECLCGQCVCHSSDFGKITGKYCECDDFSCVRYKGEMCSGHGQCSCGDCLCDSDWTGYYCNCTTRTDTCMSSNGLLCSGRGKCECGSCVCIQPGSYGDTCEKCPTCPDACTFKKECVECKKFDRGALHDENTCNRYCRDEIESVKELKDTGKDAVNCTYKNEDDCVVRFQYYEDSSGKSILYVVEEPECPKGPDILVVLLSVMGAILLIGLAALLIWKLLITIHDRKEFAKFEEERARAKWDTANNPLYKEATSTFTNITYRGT
# Test Protocol: Inhibition of fibrinogen binding to immobilized glycoprotein IIb/IIIa (ELISA)
# Condition Parameters: purified glycoprotein IIb/IIIa from human blood platelets bound to microtitre plates, read-out: IC50 (concentration of test substance required to inhibit the binding of fibrinogen to the immobilized receptor by 50%)
Assay Metric: IC50 (nM)

# Compound, Value Observed
measured = [
    ("COC(=O)COc1ccc(CCNC(=O)c2ccc(C(=N)N)cc2)cc1", 370),
    ("N=C(N)c1ccc(C(=O)NCCc2ccc(OCC(=O)O)cc2)cc1", 40),
    ("N=C(N)c1ccc(S(=O)(=O)NCC(O)c2ccc(OCC(=O)O)cc2)cc1 (centres unmarked)", 470),
    ("N=C(N)c1ccc(S(=O)(=O)NCCc2ccc(OCC(=O)O)cc2)cc1", 100),
    ("COC(=O)COc1ccc(C(=O)CN(C)C(=O)c2ccc(C(=N)N)cc2)cc1OCC(=O)OC", 8.1),
    ("C[C@H](Cc1ccc([C@H](C)CC(=O)O)s1)NC(=O)c1ccc(C(=N)N)cc1 (racemic)", 40),
    ("N=C(N)c1ccc(S(=O)(=O)NCCCc2ccc(CC(=O)O)cc2)cc1", 300),
    ("CC(CC(=O)O)c1ccc(CCNS(=O)(=O)c2ccc(C(=N)N)cc2)cc1 (centres unmarked)", 100),
    ("N=C(N)c1ccc(S(=O)(=O)N(CCc2ccc(OCC(=O)O)cc2)Cc2ccccc2)cc1", 720),
    ("N=C(N)c1ccc(C(=O)NCCc2ccc(OCC(=O)O)cc2)cn1", 30),
    ("CN(CC(=O)c1ccc(OCC(=O)O)c(OCC(=O)O)c1)C(=O)c1ccc(C(=N)N)cc1", 0.07),
    ("N=C(N)c1ccc(S(=O)(=O)NCCOc2ccc(CC(=O)O)cc2)cc1", 640),
    ("N=C(N)c1ccc(C(=O)N[C@@H](CO)Cc2ccc(OCC(=O)O)cc2)cc1", 80),
    ("N=C(N)c1ccc(CC(=O)NCc2ccc(OCC(=O)O)cc2)cc1", 970),
]
